Documented protein stability index across a set of variants
B1: C10orf62 (parent)
chain: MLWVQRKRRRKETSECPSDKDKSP

Variants of: B1
PROTOCOL DETAILS: protein stability index of a GFP-peptide fusion (GPS, HEK-293T) (PSI 1-6); higher = more stable;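 further: lentivirally expressed fusions sorted by FACS into six bins by GFP to DsRed ratio, PSI derived from sequencing read proportions per bin multiplied by bin number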
CONDITIONS: c terminus: a fixed tail appended
The answer should be a number; do not append a unit.

Use these answered entries as a reference point.
MLWVQRKRRRKETSECPSDKMKSP [D21M]
2.5
MLWVQRKRERKETSECPSDKDKSP [R9E]
3.71
MIWVQRKRRRKETSECPSDKDKSP [L2I]
3.21
MLWVQRKRRRKETSEEPSDKDKSP [C16E]
3.25
MLWVCRKRRRKETSECPSDKDKSP [Q5C]
2.61

**Q:** // query protein stability index value for entry MLWVDRKRRRKETSECPSDKDKSP [Q5D]
**A:** 4.23

**Q:** # lookup: protein stability index of MLWVQKKRRRKETSECPSDKDKSP [R6K]
**A:** 3.13

**Q:** Please report the recorded protein stability index for MLWVQRKRRRKETSRCPSDKDKSP [E15R] .
**A:** 2.54

**Q:** Name the reported protein stability index value associated with the variant MLWVQRKRRWKETSECPSDKDKSP [R10W]
**A:** 2.89

**Q:** What value of measured protein stability index is listed for MLWVQRKRRRKETSHCPSDKDKSP [E15H] ?
**A:** 2.92

**Q:** GET /values?readout=protein stability index&item= MLWVQRKRRRKETSECPEDKDKSP [S18E]
**A:** 2.88

These measurements were taken from the supplement of paper PMC10567573.
